Experiment: inhibition of NF-kB transcriptional signalling – cell-based, HEK293T, luciferase luminescence, TNF-alpha, counter-screen for STAT1 inhibitor project (AID 1303)
Settings: HEK293T NF-kB luciferase reporter, TNF-alpha induced, at 5.7 µM
The list shows a part of the results. Active and inactive are the calls of the source.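 How the source made its calls: active means inhibition above the mean of solvent-only control wells plus 3 SD of those wells (cut at about 15% in these data); inactive means the rest.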
Please answer using one outcome listed in YES for active, NO for inactive

Which outcome was assigned to C[C@@H]1C[C@@H]2O[C@H]2/C=C\C=C\C(=O)Cc2c(Cl)c(O)cc(O)c2C(=O)O1 in this test?
YES

Then this compound: COC(=O)C1=CN(Cc2ccc(OC)c(OC)c2)C=C(C(=O)OC)C1c1cccs1
NO

Then this compound: COc1ccc(C(=O)Nc2ccccc2C(=O)N/N=C/c2ccccc2OC)cc1
NO

Then this compound: NS(=O)(=O)c1cccc(NC(=O)CSc2nc3ccccc3n2-c2ccccc2)c1
NO

Then this compound: CCOC(=O)N1CCN(C(=O)C2CCN(c3ncnc4c3sc3cccc(F)c34)CC2)CC1
YES

Then this compound: COc1ccc(C2CC(c3cccs3)=NN2c2nc(C)c(C(C)=O)s2)cc1OC (stereo not drawn)
NO

Then this compound: Cc1ccc(C2=Nc3c(ccc4ccccc34)C(c3ccncc3)=NN2)cc1
NO

Then this compound: CCOC(=O)C(=CNc1cccc(C)n1)C(=O)OCC
NO
